# measurementDescription: self-splicing fitness, log relative to wild type (ln ratio); higher = more splicing; Tetrahymena group I intron in knt gene, E. coli kanamycin selection, DiMSum; sequences stand for … in CUCUCU…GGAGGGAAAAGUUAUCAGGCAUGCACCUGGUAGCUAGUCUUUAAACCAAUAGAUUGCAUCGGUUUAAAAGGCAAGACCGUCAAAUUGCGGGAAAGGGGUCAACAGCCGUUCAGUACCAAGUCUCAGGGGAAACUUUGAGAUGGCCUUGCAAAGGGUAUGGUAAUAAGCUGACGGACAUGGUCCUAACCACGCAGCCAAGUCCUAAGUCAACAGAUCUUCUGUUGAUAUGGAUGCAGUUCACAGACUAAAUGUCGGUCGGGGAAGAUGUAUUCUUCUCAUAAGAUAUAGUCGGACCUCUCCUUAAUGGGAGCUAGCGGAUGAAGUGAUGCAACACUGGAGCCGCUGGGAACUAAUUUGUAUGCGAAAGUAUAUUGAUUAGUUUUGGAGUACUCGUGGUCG;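 also: selection with 25 µg/mL kanamycin versus none on LB agar overnight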
# protocolConditions: 37 °C
Each entry falls in a class defined on self-splicing fitness (ln); the bands are band A (below -2), band B (-2 to below -0.4), band C (-0.4 or more)

Kindly state the category for this sequence: UACUAGCAAUAUUACGCCAU
band A

And then UCAGAGCAAUAUUACGGAAG , what is it?
band A

And then AUAUAGCAAUAUUACGGAUA , what is it?
band B

And then AUGUAGCAAUAUUACGAUGC , what is it?
band B

And then UGGGAGCAAUAUUACGGGGG , what is it?
band A

And then GCUCAGCAAUAUUACGCACU , what is it?
band C

And then UUAGAGCAAUAUUACGUAAC , what is it?
band B

And then GGCCAGCAAUAUUACGAACC , what is it?
band C

And then GCGAAGCAAUAUUACGUCUU , what is it?
band A

And then AAUCAGCAAUAUUACGUCUU , what is it?
band C

And then CAAGAGCAAUAUUACGAACG , what is it?
band C

And then GCCUAGCAAUAUUACGAAGG , what is it?
band A

And then AGCGAGCAAUAUUACGAUGU , what is it?
band B

And then AGUUAGCAAUAUUACGACGC , what is it?
band C

And then AGAUAGCAAUAUUACGGUAA , what is it?
band B

And then UUGUAGCAAUAUUACGCACU , what is it?
band C

And then GCUGAGCAAUAUUACGGCAC , what is it?
band B

And then UGCAAGCAAUAUUACGGGAG , what is it?
band B

And then UGGUAGCAAUAUUACGGCGC , what is it?
band B

And then GUAGAGCAAUAUUACGCUGU , what is it?
band B

And then GGCCAGCAAUAUUACGCUUA , what is it?
band C

And then AACCAGCAAUAUUACGUAAG , what is it?
band C

And then GGUUAGCAAUAUUACGGAUA , what is it?
band C

And then GAAAAGCAAUAUUACGGUAA , what is it?
band B

And then CUAUAGCAAUAUUACGUCGA , what is it?
band A

And then GUGGAGCAAUAUUACGUAGA , what is it?
band B

And then CCCGAGCAAUAUUACGUGCU , what is it?
band B

And then ACCCAGCAAUAUUACGUGAG , what is it?
band C

And then AAACAGCAAUAUUACGUGGG , what is it?
band A

And then AAUCAGCAAUAUUACGGUUU , what is it?
band C

And then ACUUAGCAAUAUUACGUGAA , what is it?
band B

And then CUAGAGCAAUAUUACGCUUA , what is it?
band A

And then GAUCAGCAAUAUUACGUACU , what is it?
band B

And then UAGGAGCAAUAUUACGUGAU , what is it?
band B

###

# measurementDescription: self-splicing fitness, log relative to wild type (ln ratio); higher = more splicing; Tetrahymena group I intron in knt gene, E. coli kanamycin selection, DiMSum; sequences stand for … in CUCUCU…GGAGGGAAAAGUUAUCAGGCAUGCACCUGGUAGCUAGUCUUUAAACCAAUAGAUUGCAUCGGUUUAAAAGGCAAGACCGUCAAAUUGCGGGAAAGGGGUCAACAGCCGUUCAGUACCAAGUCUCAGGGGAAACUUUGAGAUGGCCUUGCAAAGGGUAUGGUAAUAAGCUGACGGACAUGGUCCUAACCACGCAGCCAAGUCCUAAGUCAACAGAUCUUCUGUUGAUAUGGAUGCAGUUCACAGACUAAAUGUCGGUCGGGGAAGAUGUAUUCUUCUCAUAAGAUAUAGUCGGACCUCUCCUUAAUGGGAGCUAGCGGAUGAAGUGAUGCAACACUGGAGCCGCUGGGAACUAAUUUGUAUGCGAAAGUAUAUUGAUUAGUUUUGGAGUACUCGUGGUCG
# protocolConditions: 37 °C
Respond with Criterion met for self-splicing fitness (ln) values of -2 and above, Criterion not met for values below.

self-splicing fitness (ln) >= -2 for CCUAAGCAAUAUUACGUGGU ?
Criterion not met

And then CAACAGCAAUAUUACGAUUU , what is it?
Criterion met

And then UCUAAGCAAUAUUACGGUCG , what is it?
Criterion met

And then CUCUAGCAAUAUUACGUCGU , what is it?
Criterion not met

And then GAAGAGCAAUAUUACGAAGA , what is it?
Criterion not met

And then UAAAAGCAAUAUUACGGCAU , what is it?
Criterion met

And then CGUCAGCAAUAUUACGACUC , what is it?
Criterion met

And then AACAAGCAAUAUUACGGAAG , what is it?
Criterion not met

And then GUGUAGCAAUAUUACGGACA , what is it?
Criterion met

And then GUUAAGCAAUAUUACGGAAA , what is it?
Criterion met

And then UAGGAGCAAUAUUACGUAGU , what is it?
Criterion met

And then ACACAGCAAUAUUACGUGCC , what is it?
Criterion met

And then CUUGAGCAAUAUUACGGCUA , what is it?
Criterion met

And then AGUCAGCAAUAUUACGUGGA , what is it?
Criterion not met

And then CCCGAGCAAUAUUACGCCAU , what is it?
Criterion not met

And then CCAUAGCAAUAUUACGCCGG , what is it?
Criterion not met

And then AAAUAGCAAUAUUACGUUGU , what is it?
Criterion met

And then AUCAAGCAAUAUUACGUAGU , what is it?
Criterion met

And then UCAAAGCAAUAUUACGUCUG , what is it?
Criterion met

And then CAUCAGCAAUAUUACGUGUU , what is it?
Criterion not met

And then AUGAAGCAAUAUUACGCAGC , what is it?
Criterion met

And then UGGGAGCAAUAUUACGUCAG , what is it?
Criterion met

And then GCUAAGCAAUAUUACGGAGA , what is it?
Criterion not met

And then CAUUAGCAAUAUUACGCUCU , what is it?
Criterion met

And then CAAGAGCAAUAUUACGUGCG , what is it?
Criterion met

And then ACCUAGCAAUAUUACGCGAC , what is it?
Criterion met

And then AGGUAGCAAUAUUACGGUAC , what is it?
Criterion not met

And then GUUAAGCAAUAUUACGCGAU , what is it?
Criterion not met

###

# measurementDescription: self-splicing fitness, log relative to wild type (ln ratio); higher = more splicing; Tetrahymena group I intron in knt gene, E. coli kanamycin selection, DiMSum; sequences stand for … in CUCUCU…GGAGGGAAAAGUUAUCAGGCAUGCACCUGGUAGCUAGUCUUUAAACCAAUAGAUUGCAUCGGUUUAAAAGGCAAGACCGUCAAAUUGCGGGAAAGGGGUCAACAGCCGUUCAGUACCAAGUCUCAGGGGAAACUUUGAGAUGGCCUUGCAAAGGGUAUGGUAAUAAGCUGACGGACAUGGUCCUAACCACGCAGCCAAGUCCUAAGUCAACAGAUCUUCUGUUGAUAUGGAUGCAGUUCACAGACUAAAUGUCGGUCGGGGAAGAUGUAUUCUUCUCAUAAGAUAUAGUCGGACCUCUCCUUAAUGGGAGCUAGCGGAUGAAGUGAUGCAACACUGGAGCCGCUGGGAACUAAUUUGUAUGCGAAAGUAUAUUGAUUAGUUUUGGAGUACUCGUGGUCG
# protocolConditions: 30 °C
Respond with Criterion met for self-splicing fitness (ln) values of -2 and above, Criterion not met for values below.

self-splicing fitness (ln) >= -2 for CCGGAGCAAUAUUACGAGCG ?
Criterion met

And then CCCGAGCAAUAUUACGUAGA , what is it?
Criterion not met

And then AAGUAGCAAUAUUACGUACG , what is it?
Criterion met

And then ACGCAGCAAUAUUACGCAGA , what is it?
Criterion not met

And then UGAGAGCAAUAUUACGCAUU , what is it?
Criterion not met

And then AGAGAGCAAUAUUACGAUUC , what is it?
Criterion not met

And then CCGAAGCAAUAUUACGACUU , what is it?
Criterion not met

And then GCACAGCAAUAUUACGUUCG , what is it?
Criterion met

And then CGUGAGCAAUAUUACGGAUA , what is it?
Criterion not met

And then CCCAAGCAAUAUUACGAAUA , what is it?
Criterion not met

And then GAGCAGCAAUAUUACGUACG , what is it?
Criterion not met

And then CUUCAGCAAUAUUACGCAUG , what is it?
Criterion met

And then UAAUAGCAAUAUUACGUUAG , what is it?
Criterion met

And then UGAAAGCAAUAUUACGCAUA , what is it?
Criterion met

And then UAGCAGCAAUAUUACGACAA , what is it?
Criterion met

And then GGACAGCAAUAUUACGACUA , what is it?
Criterion met

And then CUUCAGCAAUAUUACGAUAU , what is it?
Criterion not met

And then AUUCAGCAAUAUUACGGCUA , what is it?
Criterion met

And then CAGUAGCAAUAUUACGAGCU , what is it?
Criterion not met

And then ACAGAGCAAUAUUACGGCAU , what is it?
Criterion not met

And then CCCAAGCAAUAUUACGGAUC , what is it?
Criterion not met

And then AUGUAGCAAUAUUACGGAUA , what is it?
Criterion met

And then UGCAAGCAAUAUUACGUUCA , what is it?
Criterion met

And then UGUGAGCAAUAUUACGGGGU , what is it?
Criterion not met

And then UCACAGCAAUAUUACGAGGC , what is it?
Criterion not met

And then GAACAGCAAUAUUACGUGCG , what is it?
Criterion met

And then GAUUAGCAAUAUUACGCAGU , what is it?
Criterion not met

And then AACUAGCAAUAUUACGCAAA , what is it?
Criterion not met

And then GAAGAGCAAUAUUACGUAUU , what is it?
Criterion not met

And then UUAAAGCAAUAUUACGACUA , what is it?
Criterion met
